Molecular target: T1, 14-3-3β/α, full length, N-terminally His6-tagged (human, UniProt P31946 1-246)
T1 construct: 14-3-3 beta/alpha, human, full length; also called His6-14-3-3β/α; source: E. coli BL21(DE3), purified (HisTrap, SEC); also in E. coli cell lysate (pulldown); not shown: His6, N-terminal, kept
T1 sequence (looked up): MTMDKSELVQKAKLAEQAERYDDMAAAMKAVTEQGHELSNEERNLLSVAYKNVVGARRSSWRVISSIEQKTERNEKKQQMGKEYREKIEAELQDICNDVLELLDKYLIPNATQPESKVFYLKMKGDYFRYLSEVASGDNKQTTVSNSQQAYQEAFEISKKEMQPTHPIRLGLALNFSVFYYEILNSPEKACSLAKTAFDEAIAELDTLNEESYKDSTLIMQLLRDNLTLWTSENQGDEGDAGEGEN
Test: fluorescence polarisation; direct binding: dilution series of 14-3-3 protein added to FITC-labeled peptide (30 nM stock, 5 µl in 15 µl); 10 mM HEPES pH 7.4, 150 mM NaCl, 2 mM DTT, 0.01% Tween 20; 60 min at room temperature, read at 25 °C; four-parameter fit
Conditions: both partners purified
pKd: −log10 of the molar value. Where no end group is shown, it is not given here. [ ]: non-standard residue; d: D form. pT = C[C@@H](OP(=O)(O)O)[C@H](N)C(=O)O
Give pKd for every item shown.

Task: Bench note: what pKd did PASATTLDQ (also: one phosphorylated Ser/Thr within Ser61–Thr64) [peptide 16, monophosphorylated APN 9-mer (noncanonical site of peptide 12)] show?
Result: < 4.40

Task: Then this binder: NPASA[pT]TLD [peptide 15, monophosphorylated APN 9-mer pThr63 (site 2)]
Result: < 4.40

Task: What would you report for TTNPASATT (also: one phosphorylated Ser/Thr within Ser61–Thr64) [peptide 14, monophosphorylated APN 9-mer (noncanonical site of peptide 10)] ?
Result: < 4.40

Each recorded value in this set is attributed to paper PMC7939381.
